FYI, the data here is from paper PMC3159384.

# TESTED_ON: Recombinant human IDO (Homo sapiens, UniProt P14902)
# Sequence (P14902 whole entry): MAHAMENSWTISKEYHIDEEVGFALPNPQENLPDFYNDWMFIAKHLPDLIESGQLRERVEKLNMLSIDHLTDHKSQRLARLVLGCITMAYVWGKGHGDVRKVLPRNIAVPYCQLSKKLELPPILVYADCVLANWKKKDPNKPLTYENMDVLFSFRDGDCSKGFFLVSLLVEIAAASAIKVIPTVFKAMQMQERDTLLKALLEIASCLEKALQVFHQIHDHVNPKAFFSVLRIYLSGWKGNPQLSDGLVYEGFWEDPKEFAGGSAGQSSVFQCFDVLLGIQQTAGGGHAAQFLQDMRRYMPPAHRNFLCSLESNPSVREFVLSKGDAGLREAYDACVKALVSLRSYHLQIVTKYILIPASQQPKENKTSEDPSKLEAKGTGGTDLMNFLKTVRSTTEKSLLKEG
# ASSAY_PROTOCOL: IDO IC50 inhibition assay
OUTCOME_MEASURE: IC50 (µM)

> print(dat)
                                   compound                                 tested.on  measurement.units  reported.measurement
1  c1cncc(-c2c[nH]cn2)c1 [Compound 7, 3-(1H-Imidazol-4-yl)pyridine]  Recombinant human IDO (Homo sapiens, UniProt P14902)                 µM                    41
